Test system: NCI/ADR-RES ovarian
Experiment: NCI tumour cell line growth inhibition, 48 h
# TGI listing for each entry below
Numbers only; they are read as µM.

[
  {
    "Compound": "C/C(=N\\Nc1nc2ccccc2s1)c1cc2ccccc2cn1",
    "Numeric value": 42
  }
]

State its TGI: COC1(CC[C@@H](C)COC2OC(CO)C(O)C(O)C2O)O[C@H]2C[C@H]3[C@@H]4CC=C5C[C@@H](OC6OC(CO)C(O)C(OC7OC(CO)C(O)C(O)C7O)C6OC6OC(C)C(O)C(O)C6O)CC[C@]5(C)[C@H]4CC[C@]3(C)[C@H]2[C@@H]1C (some centres undefined)
33.6
